# System: human NOD2 signaling
# protocol notes: Inhibition of human NOD2 signaling in HEK-Blue-hNOD2 cells (L18-MDP stimulated, SEAP reporter)
# Assay type: cell-based
# measurement setup: Homo sapiens, HEK-Blue hNOD2, HEK-Blue-hNOD2 cells, NOD2 ligand stimulation, SEAP reporter; read-out: hNOD2 IC50
pIC50: −log10 of the molar value.
value type: pIC50

Take a look at these entries with their results.
Cc1cc(CC(=O)Nc2cc(C(C)(C)C)[nH]n2)cc(F)c1Oc1ccnc2cc(F)c(C(N)=O)cc12 [Compound 617]
8.96
[2H]C([2H])([2H])C(n1cc(NC(=O)Cc2cc(C)c(Oc3ccnc4cc(F)c(C(N)=O)cc34)c(F)c2)cn1)(C([2H])([2H])[2H])C([2H])([2H])[2H] [Compound 608]
8.80
CNC(=O)c1ccc2nccc(Oc3ccc(CC(=O)Nc4cnn(C56CC(C5)C6)c4)cc3C)c2c1 [Compound 500]
9.40

1: CNC(=O)c1ccc2nccc(Oc3cc(F)c(CC(=O)Nc4cnn(C56CC(C5)C6)c4)c(F)c3C)c2c1 [Compound 557]
2: Cc1cc(C(C)C(=O)Nc2cnn(C(C)(C)C)c2)ccc1Oc1ccnc2ccc(S(C)(=O)=O)cc12 (single isomer, unassigned) [Compound 215]
3: Cc1cc(CC(=O)Nc2cnn(C(C)(C)C)c2)cc(F)c1Oc1ccnc2cc(Cl)c(C(N)=O)cc12 [Compound 602]
4: [2H]C([2H])([2H])NC(=O)c1cc2c(Oc3c(C)cc(CC(=O)Nc4cnn(C(C)(C)C)c4)cc3F)ccnc2cc1F [Compound 600]
Request: Please give the order of these molecules when sorted by pIC50, largest value leading. Sort the labels as requested; that list is your answer.
Response: 1, 4, 2, 3
(1: 9.52, 4: 8.85, 2: 8.49, 3: 8.10)

* * *

# target or system: RIPK2 enzyme (Homo sapiens, UniProt O43353)
# Construct: purchased Carna 09-128
# Sequence (O43353 1-299 limits assumed): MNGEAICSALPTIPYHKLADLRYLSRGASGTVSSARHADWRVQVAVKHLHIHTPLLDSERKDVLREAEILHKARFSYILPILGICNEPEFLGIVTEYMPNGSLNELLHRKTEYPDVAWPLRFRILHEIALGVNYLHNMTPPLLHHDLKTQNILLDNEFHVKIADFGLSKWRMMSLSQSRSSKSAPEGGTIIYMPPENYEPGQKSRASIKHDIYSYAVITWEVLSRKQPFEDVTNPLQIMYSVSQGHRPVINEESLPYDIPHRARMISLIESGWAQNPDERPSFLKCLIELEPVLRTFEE
# protocol notes: RIPK2 inhibition (ADP-Glo Kinase Assay)
# Format: biochemical
# measurement setup: RIPK2 5 nM, ATP 150 μM, MBP substrate, read-out: RIPK2 IC50
value type: IC50

Answered cases to consult:
COc1ccc2ncnc(Oc3ccc(CC(=O)Nc4cc(C(C)(C)C)ncn4)c(F)c3)c2c1
13.7 nM
Cc1cc(CC(=O)Nc2cnn(C(C)(C)C)c2)ccc1Oc1ccnc2ccc(OC3CCNCC3C)cc12 (racemic) [Compound 187]
< 2.5 nM
CNC(=O)C(C)(C)c1ccc2nccc(Oc3cc(F)c(CC(=O)Nc4cnn(C(C)(C)C)c4)cc3C)c2c1
< 2.5 nM

Now let's try a different one.
Request: Field request: IC50 | item: Cc1cc(CC(=O)Nc2cnn(C(C)(C)C)c2)ccc1Oc1ccnc2ccc(S(N)(=O)=O)cc12
Response: < 2.5 nM

* * *

# target or system: RIPK2 enzyme (Homo sapiens)
# Construct: purchased Carna 09-128
# protocol notes: RIPK2 inhibition (ADP-Glo Kinase Assay)
# Assay type: biochemical
# measurement setup: RIPK2 5 nM, ATP 150 μM, MBP substrate, read-out: RIPK2 IC50
pIC50: −log10 of the molar value.
value type: pIC50

CC(C)(C)n1cc(NC(=O)Cc2ccc(Oc3ccnc4ccc(-n5ccccc5=O)cc34)cc2F)cn1 [Compound 157]
8.28

A: CC(C)(C)c1cc(NC(=O)Cc2ncc(Oc3ncnc4ccc(F)cc34)cc2F)ncn1 [Compound 52]
B: CN1CCC(COc2ccc3ncnc(Oc4cnc(CC(=O)Nc5cnn(C(C)(C)C)c5)c(F)c4)c3c2)CC1 [Compound 61]
Request: // which entry reports the smaller pIC50, A or B ? Pick one; state its label.
Response: A

I: CC(C)(C)n1cc(NC(=O)Cc2ncc(Oc3ncnc4ccc(O[C@H]5CCOC5)cc34)cc2F)cn1 [Compound 64]
II: Cc1cc(CC(=O)Nc2cnn(C(C)(C)C)c2)ccc1Oc1ncnc2ccc(OC3CCN(CC(F)(F)F)CC3)cc12 [Compound 111]
Request: Which one would you say has the larger pIC50 value: I , or II ? Give the label under which the chosen entry appears.
Response: II
